# Lookup of reported growth keyed by entry
system: K-562 leukemia; assay: NCI-60 one-dose screen, 48 h (100 = growth as untreated, 0 = no growth, -100 = all killed); settings: 10 µM unless noted
Compounds without any hit were thinned out: in the full panel of roughly 83,000, 20% have a hit.

MOLECULE: CC(=O)Oc1ccc(CCN2C(=O)CSC2=S)cc1
TGT: K-562 leukemia
growth, %: 57.2
//
MOLECULE: CCN1C(=O)N(CC)C2C1NN=C1SC(c3ccccc3)=CC(=O)N12 (stereo not drawn)
TGT: K-562 leukemia
growth, %: 11.7
//
MOLECULE: COc1ccc(CCN2C(=O)/C(=C/c3nc(CO)cs3)SC2=S)cc1
TGT: K-562 leukemia
growth, %: 60.4
//
MOLECULE: Cc1nn(-c2ccccc2)cc1/C=N/Nc1nc(Nc2ccccc2)nc(Nc2ccc(S(N)(=O)=O)cc2)n1
TGT: K-562 leukemia
growth, %: 9.56
//
MOLECULE: CC1COc2c(N3CCN(C)CC3)c(F)cc3c(=O)c(C(=O)N/N=C/c4cc[nH]c4)cn1c23 (stereo not drawn)
TGT: K-562 leukemia
growth, %: -27.8
//
MOLECULE: NS(=O)(=O)c1ccc(Nc2nc(N/N=C/c3ccc([N+](=O)[O-])cc3)nc(Nc3ccccc3)n2)cc1
TGT: K-562 leukemia
growth, %: 20.3
//
MOLECULE: O=[N+]([O-])c1ccc(-c2nnc(SCc3ccc(O)c4ncccc34)o2)cc1
TGT: K-562 leukemia
growth, %: 17.6
//
MOLECULE: O=C1CSC(=O)N1Cc1cc2ccccc2nc1Cl
TGT: K-562 leukemia
growth, %: 99.8
